Here the recorded Vd is given for each entry.
Assay: Volume of distribution at steady state in cynomolgus monkey at 0.5 mg/kg, iv
Format: ADME, organism-based, Macaca fascicularis
Set-up: dose 0.5 mg/kg, route intravenous
Conditions: in vivo, read-out: Vdss
Reply numerically in L/kg, unit not repeated.

Asked: Using the record for `COc1ccc(F)c(-c2ccc(COc3cccc([C@@H](CC(=O)O)C4CC4)c3)cc2C2=CCCC2(C)C)c1` , report its Vd.
Given back: 2

Asked: Using the record for `COc1cc(-c2ccc(COc3ccc4c(c3F)[C@]3(CCC4)C[C@H]3C(=O)O)cc2[C@@H]2CCCC2(C)C)c(F)cn1` , report its Vd.
Given back: 0.4

Asked: Using the record for `COc1ccc(F)c(-c2ccc(COc3ccc4c(c3)[C@]3(CC4)C[C@H]3C(=O)O)cc2[C@@H]2CCCC2(C)C)c1` , report its Vd.
Given back: 1.4

---

Biological target: Free fatty acid receptor 1 (Homo sapiens, UniProt O14842)
Sequence (O14842 whole entry): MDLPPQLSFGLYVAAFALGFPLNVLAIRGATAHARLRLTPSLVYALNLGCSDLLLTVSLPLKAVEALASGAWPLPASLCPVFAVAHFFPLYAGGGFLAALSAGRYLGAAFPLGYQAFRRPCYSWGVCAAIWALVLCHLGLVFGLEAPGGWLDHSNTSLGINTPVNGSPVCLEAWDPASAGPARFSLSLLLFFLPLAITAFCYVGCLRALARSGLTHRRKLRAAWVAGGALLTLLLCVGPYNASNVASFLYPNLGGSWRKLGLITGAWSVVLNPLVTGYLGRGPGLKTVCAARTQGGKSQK
Assay: Agonist activity at human FFA1 receptor expressed in CHO cell membranes after 4 hrs by aequorin bioluminescence assay relative to AM-1638
Type: cell-based
Here the recorded Emax is given for each entry.
Reply numerically in %, unit not repeated.

Some compounds with known Emax results, for comparison:
{"smiles": "COc1ccc(F)c(-c2ccc(COc3ccc4c(c3F)[C@]3(CCC4)C[C@H]3C(=O)O)cc2[C@@H]2CCCC2(C)C)c1", "Emax [%]": 90}
{"smiles": "COc1ccc(F)c(-c2ccc(COc3ccc4c(c3)[C@]3(CC4)C[C@H]3C(=O)O)cc2[C@@H]2CCCC2(C)C)c1", "Emax [%]": 101}
{"smiles": "COc1ccc(F)c(-c2ccc(COc3ccc4c(c3)[C@]3(CC4)C[C@@H]3C(=O)O)cc2C2=CCCC2(C)C)c1", "Emax [%]": 5}
{"smiles": "COc1ccc(F)c(-c2ccc(COc3ccc4c(c3)[C@]3(CC4)C[C@H]3C(=O)O)cc2[C@H]2CCCC2(C)C)c1", "Emax [%]": 104}
{"smiles": "COc1ccc(F)c(-c2ccc(COc3ccc4c(c3)[C@@]3(CC4)C[C@H]3C(=O)O)cc2C2=CCCC2(C)C)c1", "Emax [%]": 27}

Asked: Using the record for `COc1ccc(F)c(-c2ccc(COc3ccc4c(c3)[C@H]3[C@@H](C4)[C@H]3C(=O)O)cc2C2=CCCC2(C)C)c1` , report its Emax.
Given back: 17

Asked: Using the record for `COc1ccc(F)c(-c2ccc(COc3ccc4c(c3)[C@@H]3[C@H](C4)[C@@H]3C(=O)O)cc2C2=CCCC2(C)C)c1` , report its Emax.
Given back: 10

Asked: Using the record for `COc1cc(-c2ccc(COc3ccc4c(c3F)[C@]3(CCC4)C[C@H]3C(=O)O)cc2[C@@H]2CCCC2(C)C)c(F)cn1` , report its Emax.
Given back: 90

Asked: Using the record for `COc1ccc(F)c(-c2ccc(COc3ccc4c(c3)[C@@H]3[C@H](C4)[C@H]3C(=O)O)cc2C2=CCCC2(C)C)c1` , report its Emax.
Given back: 15

Asked: Using the record for `COc1ccc(F)c(-c2ccc(COc3ccc4c(c3)[C@]3(CCC4)CC[C@H]3C(=O)O)cc2C2=CCCC2(C)C)c1` , report its Emax.
Given back: 83

Asked: Using the record for `COc1ccc(F)c(-c2ccc(COc3ccc4c(c3)[C@]3(CC4)C[C@H]3C(=O)O)cc2C2=CCCC2(C)C)c1` , report its Emax.
Given back: 100

Asked: Using the record for `COc1ccc(F)c(-c2ccc(COc3ccc4c(c3)[C@H]3[C@@H](C4)[C@@H]3C(=O)O)cc2C2=CCCC2(C)C)c1` , report its Emax.
Given back: 99

Asked: Using the record for `COc1ccc(F)c(-c2ccc(COc3ccc4c(c3)[C@]3(CC4)CC[C@H]3C(=O)O)cc2C2=CCCC2(C)C)c1` , report its Emax.
Given back: 92

Asked: Using the record for `COc1ccc(F)c(-c2ccc(COc3ccc4c(c3)[C@@]3(CC4)C[C@@H]3C(=O)O)cc2C2=CCCC2(C)C)c1` , report its Emax.
Given back: 12

Asked: Using the record for `COc1ccc(F)c(-c2ccc(COc3ccc4c(c3)[C@]3(CCC4)C[C@H]3C(=O)O)cc2C2=CCCC2(C)C)c1` , report its Emax.
Given back: 98

Asked: Using the record for `COc1ccc(F)c(-c2ccc(COc3ccc4c(c3)[C@]3(CCC4)C[C@H]3C(=O)O)cc2[C@@H]2CCCC2(C)C)c1` , report its Emax.
Given back: 101
